target: CYP1A2 (Homo sapiens); test: CYP1A2 inhibition, probe/drug metabolism in human liver microsomes (LC-MS/MS); settings: human, human liver microsomes, pH 7.4, probe phenacetin 40 μM, Residual activity (%) CYP1A2, HLM 0.5 mg/mL, phenacetin 40 μM, 30 min
Sequence (P05177 whole entry): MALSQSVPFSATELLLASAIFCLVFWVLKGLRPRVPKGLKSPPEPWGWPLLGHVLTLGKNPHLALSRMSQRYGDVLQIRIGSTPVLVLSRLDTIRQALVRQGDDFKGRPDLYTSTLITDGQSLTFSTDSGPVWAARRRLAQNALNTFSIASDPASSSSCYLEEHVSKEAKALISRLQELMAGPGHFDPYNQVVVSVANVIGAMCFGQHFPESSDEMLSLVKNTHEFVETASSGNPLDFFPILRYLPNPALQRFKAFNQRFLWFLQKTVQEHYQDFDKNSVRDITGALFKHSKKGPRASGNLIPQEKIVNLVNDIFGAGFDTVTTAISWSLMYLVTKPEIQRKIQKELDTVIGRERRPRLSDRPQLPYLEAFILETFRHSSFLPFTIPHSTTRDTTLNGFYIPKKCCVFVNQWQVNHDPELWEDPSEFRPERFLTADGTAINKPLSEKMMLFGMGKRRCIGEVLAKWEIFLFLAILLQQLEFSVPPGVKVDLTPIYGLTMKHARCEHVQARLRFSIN
So I've got a bunch of compounds here, and I need their activity at 30 min values.
One number for each entry, in %.

Some entries whose results are on file:
>  <COMPOUND>
CC(=CC(=O)CC(C)C(=O)O)C1CC(=O)C2(C)C3=C(C(=O)CC12C)C1(C)CCC(=O)C(C)(C)C1CC3O (stereo not shown)

>  <TEST VALUE>
58

$$$$
>  <COMPOUND>
CC(=O)OC1C(=O)C2=C(C(=O)CC3C(C)(C)C(=O)CCC23C)C2(C)C(=O)CC(C(C)CC(O)C=C(C)C(=O)O)C12C (stereo not shown)

>  <TEST VALUE>
53.7

$$$$
>  <COMPOUND>
CC(CC(=O)CC(C)C1CC(=O)C2(C)C3=C(C(=O)CC12C)C1(C)CCC(O)C(C)(CO)C1CC3O)C(=O)O (stereo not shown)

>  <TEST VALUE>
35.4

$$$$

Batch lookup, activity at 30 min per entry.
1. CC(CC(=O)CC(C)C1CC(=O)C2(C)C3=C(C(=O)C(O)C12C)C1(C)CCC(=O)C(C)(CO)C1CC3O)C(=O)O (stereo not shown)
2. CC(=CC(=O)CC(C)C(=O)O)C1CC(=O)C2(C)C3=C(C(=O)CC12C)C1(C)CCC(=O)C(C)(CO)C1CC3O (stereo not shown)
3. CC(CC(=O)CC(C)C1CC(O)C2(C)C3=C(C(=O)CC12C)C1(C)CCC(O)C(C)(CO)C1CC3=O)C(=O)O (stereo not shown)
4. CC(=O)OC1C(=O)C2=C(C(O)CC3C2(C)CCC(O)C3(C)C)C2(C)C(=O)CC(C(C)=CC(=O)CC(C)C(=O)O)C12C (stereo not shown)

Response:
[33, 29.1, 29.1, 32.5]

* * *

biological target: CYP1A2 (Homo sapiens); test: CYP1A2 inhibition, probe/drug metabolism in human liver microsomes (LC-MS/MS); conditions: IC50 against CYP 1A2, substrate phenacetin 40 μM, HLM
Hi there, I'd appreciate the recorded IC50 for every entry that follows.
Give bare numbers, in µM.

Please state IC50 for every molecule in the list that follows.
1. CC(=CC(=O)CC(C)C(=O)O)C1CC(=O)C2(C)C3=C(C(=O)CC12C)C1(C)CCC(=O)C(C)(CO)C1CC3O (stereo not drawn)
2. CC(CC(=O)CC(C)C1CC(O)C2(C)C3=C(C(=O)CC12C)C1(C)CCC(O)C(C)(CO)C1CC3=O)C(=O)O (stereo not drawn)
3. CC(=CC(=O)CC(C)C(=O)O)C1CC(=O)C2(C)C3=C(C(=O)C(O)C12C)C1(C)CCC(=O)C(C)(CO)C1CC3O (stereo not drawn)

Response:
1. 10.1
2. 11.6
3. 9.62

* * *

Could you please report measured activity at 30 min for the items listed next?
biological target: CYP2B6 (Homo sapiens); experiment: CYP2B6 inhibition, probe/drug metabolism in human liver microsomes; settings: human, human liver microsomes, pH 7.4, probe bupropion 75 μM, Residual activity (%) CYP2B6, HLM 0.5 mg/mL, bupropion 75 μM, 30 min
Answers are plain numbers, in %.

Known activity at 30 min results, listed for orientation:
>  <MOLECULE>
CC(CC(=O)CC(C)C1CC(=O)C2(C)C3=C(C(=O)CC12C)C1(C)CCC(O)C(C)(CO)C1CC3O)C(=O)O (stereo not shown)

>  <activity at 30 min, %>
79.9

$$$$
>  <MOLECULE>
CC(CCC(O)C(C)(O)CO)C1CCC2(C)C3=C(C(=O)CC12C)C1(C)CCC(=O)C(C)(C)C1CC3 (stereo not shown)

>  <activity at 30 min, %>
56.8

$$$$
>  <MOLECULE>
CC(=CC(=O)CC(C)C(=O)O)C1CC(=O)C2(C)C3=C(C(=O)C(O)C12C)C1(C)CCC(O)C(C)(C)C1CC3=O (stereo not shown)

>  <activity at 30 min, %>
76.6

$$$$
>  <MOLECULE>
CC(CC(=O)CC(C)C1CC(O)C2(C)C3=C(C(=O)CC12C)C1(C)CCC(=O)C(C)(C)C1CC3=O)C(=O)O (stereo not shown)

>  <activity at 30 min, %>
83

$$$$
>  <MOLECULE>
CC(CC(=O)CC(C)C1CC(O)C2(C)C3=C(C(=O)CC12C)C1(C)CCC(O)C(C)(CO)C1CC3=O)C(=O)O (stereo not shown)

>  <activity at 30 min, %>
97.5

$$$$

Below are some molecules; for each one, tell me its activity at 30 min.
1. CC(=O)OC1C(=O)C2=C(C(=O)CC3C(C)(C)C(=O)CCC23C)C2(C)C(=O)CC(C(C)CC(O)C=C(C)C(=O)O)C12C (stereo not shown)
2. CC(=CC(=O)CC(C)C(=O)O)C1CC(=O)C2(C)C3=C(C(=O)C(O)C12C)C1(C)CCC(=O)C(C)(CO)C1CC3O (stereo not shown)
3. CC1(C)CCC2(C(=O)O)CCC3(C)C(=C2C1)C=CC1C2(C)CCC(O)C(C)(C)C2CCC13C (stereo not shown)
4. CC1(C)CCC2(C(=O)O)CCC3(C)C(=CC(=O)C4C5(C)CCC(O)C(C)(C)C5CCC43C)C2C1 (stereo not shown)
5. CC(CC(=O)CC(C)C1CC(O)C2(C)C3=C(C(=O)CC12C)C1(C)CCC(=O)C(C)(C)C1CC3)C(=O)O (stereo not shown)

Response:
[71.2, 84.6, 88.6, 94.3, 89.1]

* * *

biological target: CYP2B6 (Homo sapiens, UniProt P20813); assay: CYP2B6 inhibition, probe/drug metabolism in human liver microsomes; details: IC50 against CYP 2B6, substrate bupropion 75 μM, HLM
Sequence (P20813 whole entry): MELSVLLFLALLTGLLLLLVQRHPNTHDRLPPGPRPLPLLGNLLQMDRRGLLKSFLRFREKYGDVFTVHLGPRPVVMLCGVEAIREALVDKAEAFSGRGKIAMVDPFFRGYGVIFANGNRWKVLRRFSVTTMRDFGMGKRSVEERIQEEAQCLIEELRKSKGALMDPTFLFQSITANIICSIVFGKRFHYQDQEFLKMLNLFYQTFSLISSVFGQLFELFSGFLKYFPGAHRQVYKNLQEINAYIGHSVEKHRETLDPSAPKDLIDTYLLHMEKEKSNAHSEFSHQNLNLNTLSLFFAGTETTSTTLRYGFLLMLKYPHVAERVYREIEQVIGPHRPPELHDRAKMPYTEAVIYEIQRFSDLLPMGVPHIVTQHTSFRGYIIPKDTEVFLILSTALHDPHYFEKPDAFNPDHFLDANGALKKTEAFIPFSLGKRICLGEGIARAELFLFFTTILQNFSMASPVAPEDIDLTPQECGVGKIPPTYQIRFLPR
ENDPOINT: IC50 (µM)
Give bare numbers, in µM.

Query: Lab note: CYP2B6 (Homo sapiens, UniProt P20813) assay, enter IC50 for CC(CCC(O)C(C)(O)CO)C1CCC2(C)C3=C(C(=O)CC12C)C1(C)CCC(=O)C(C)(C)C1CC3 (stereo not shown) here
Response: 25.3

* * *

molecular target: CYP2B6 (Homo sapiens); experiment: CYP2B6 inhibition, probe/drug metabolism in human liver microsomes; details: human, human liver microsomes, pH 7.4, probe bupropion 75 μM, Residual activity (%) CYP2B6, HLM 0.5 mg/mL, bupropion 75 μM, 30 min
Decision: activity at 30 min compared against 90%; not below it gives rule met, below it gives rule not met.

>  <COMPOUND>
CC(=CC(=O)CC(C)C(=O)O)C1CC(=O)C2(C)C3=C(C(=O)CC12C)C1(C)CCC(=O)C(C)(CO)C1CC3O (centres unmarked) [Compound 1]

>  <QUALITATIVE LABEL>
rule not met

$$$$
>  <COMPOUND>
CC(CC(=O)CC(C)C1CC(=O)C2(C)C3=C(C(=O)CC12C)C1(C)CCC(O)C(C)(C)C1CC3=O)C(=O)O (centres unmarked) [Compound 54]

>  <QUALITATIVE LABEL>
rule not met

$$$$

Could you now look at the following compound, please?
Query: activity at 30 min >= 90% for CC(=O)OC1C(=O)C2=C(C(=O)CC3C(C)(C)C(=O)CCC23C)C2(C)C(=O)CC(C(C)CC(=O)CC(C)C(=O)O)C12C (centres unmarked) [Compound 9] ?
Response: rule met

* * *

molecular target: UniProt:P33261; experiment: CYP2C19 inhibition, S-mephenytoin probe in human liver microsomes; conditions: human, human liver microsomes, pH 7.4, probe S-mephenytoin 50 μM, Residual activity (%) CYP2C19, HLM 0.5 mg/mL, S-mephenytoin 50 μM, 30 min
Sequence (P33261 whole entry): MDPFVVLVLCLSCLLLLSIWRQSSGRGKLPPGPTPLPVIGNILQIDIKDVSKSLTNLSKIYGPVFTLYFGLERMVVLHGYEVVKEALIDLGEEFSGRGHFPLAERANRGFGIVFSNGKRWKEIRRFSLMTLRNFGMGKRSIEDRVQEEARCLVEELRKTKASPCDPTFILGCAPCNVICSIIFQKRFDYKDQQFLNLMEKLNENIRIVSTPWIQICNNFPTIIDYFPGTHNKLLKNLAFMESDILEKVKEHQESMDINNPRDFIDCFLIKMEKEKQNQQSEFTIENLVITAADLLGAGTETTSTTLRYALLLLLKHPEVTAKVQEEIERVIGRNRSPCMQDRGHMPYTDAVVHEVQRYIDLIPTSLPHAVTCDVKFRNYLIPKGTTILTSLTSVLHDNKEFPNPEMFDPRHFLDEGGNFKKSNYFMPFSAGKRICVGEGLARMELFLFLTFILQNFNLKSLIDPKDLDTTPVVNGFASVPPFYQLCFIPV
I'd be grateful if you could share measured activity at 30 min for these entries.
Give bare numbers, in %.

>  <COMPOUND>
CC(=CC(=O)CC(C)C(=O)O)C1CC(=O)C2(C)C3=C(C(=O)C(O)C12C)C1(C)CCC(=O)C(C)(CO)C1CC3O (stereo not shown) [Compound 6, ganoderica F]

>  <MEASUREMENT UNITS>
%

>  <activity at 30 min>
58.5

$$$$
>  <COMPOUND>
CC(CC(=O)CC(C)C1CC(=O)C2(C)C3=C(C(=O)CC12C)C1(C)CCC(=O)C(C)(CO)C1CC3O)C(=O)O (stereo not shown) [Compound 8]

>  <MEASUREMENT UNITS>
%

>  <activity at 30 min>
68.6

$$$$
>  <COMPOUND>
CC(=CC(=O)CC(C)C(=O)O)C1CC(=O)C2(C)C3=C(C(=O)CC12C)C1(C)CCC(=O)C(C)(C)C1CC3O (stereo not shown) [Compound 51]

>  <MEASUREMENT UNITS>
%

>  <activity at 30 min>
110

$$$$
>  <COMPOUND>
CC(=CC(=O)CC(C)C(=O)O)C1CC(=O)C2(C)C3=C(C(=O)C(O)C12C)C1(C)CCC(O)C(C)(C)C1CC3=O (stereo not shown) [Compound 17]

>  <MEASUREMENT UNITS>
%

>  <activity at 30 min>
85.5

$$$$
>  <COMPOUND>
CC(=O)OC1C(=O)C2=C(C(=O)CC3C(C)(C)C(=O)CCC23C)C2(C)C(=O)CC(C(C)CC(O)C=C(C)C(=O)O)C12C (stereo not shown) [Compound 31]

>  <MEASUREMENT UNITS>
%

>  <activity at 30 min>
94.8

$$$$

Dear reader, for each entry below, please note its activity at 30 min.
1. CC(CCC(O)C(C)(O)CO)C1CCC2(C)C3=C(C(=O)CC12C)C1(C)CCC(=O)C(C)(C)C1CC3 (stereo not shown) [Compound 25, ganodrol C]
2. CC(=O)OC1C(=O)C2=C(C(=O)CC3C(C)(C)C(=O)CCC23C)C2(C)C(=O)CC(C(C)CC(=O)CC(C)C(=O)O)C12C (stereo not shown) [Compound 9]

Response:
[39.2, 105]
